# Tested on: TK-10 renal
# testDetails: NCI-60 one-dose screen, 48 h (100 = growth as untreated, 0 = no growth, -100 = all killed)
# conditionsUsed: 10 µM unless noted
About 83,000 compounds went through this panel and 20% of them were active in at least one assay; those are over-represented in the sample as a whole.
experimentalEndpoint: growth (%)

O=C(NCc1cccnc1)/C(=C\c1ccc(Br)cc1)S(=O)(=O)c1ccccc1	-59.4
N#CSc1c[nH]c2ccc(/C=C/C(=O)/C=C(/C=C/c3ccc4[nH]cc(SC#N)c4c3)OB(F)F)cc12	-0.38
Cc1ccc(-c2nc(SCC(=O)c3ccc(C#N)cc3)[nH]c(=O)c2C#N)cc1	99.7
COc1c(O)c(O)cc2c3c(oc12)CC(c1ccc2c(c1)OCO2)CC3=O (stereo not given)	101
Cn1ccnc1CN1CCSC(C(=O)Nc2ccccc2)C1 (stereo not given)	101
NNCCc1ccccc1	118
COc1cc(-c2[nH]ncc2Nc2ccc(Cl)cc2)cc(OC)c1OC	67.8
CCCCCCCCCCCCCCCCCCn1cc(COc2ccc(C=O)cc2)nn1	99.9
CSc1nnc(-c2cc3c([nH]c4ccccc43)c(-c3cccc(O)c3)n2)n1-c1ccc(C)cc1	35.5
Cc1cc2nc(C(Cl)Cl)nc(-c3ccc(Cl)cc3)n2n1	4.92

* * *

# System: KM12 colon
# testDetails: NCI-60 one-dose screen, 48 h (100 = growth as untreated, 0 = no growth, -100 = all killed)
# conditionsUsed: 10 µM unless noted
About 83,000 compounds went through this panel and 20% of them were active in at least one assay; those are over-represented in the sample as a whole.
Label key: class 1 means growth under 50%; class 0 means growth of 50% or more.

CN1C(=O)/C(=C/c2ccc(C(=O)Nc3ncc(Cc4ccccc4Cl)s3)cc2)SC1=S	class 1
Clc1ccc2c(c1)N(c1ncnc3ccc(-c4cnc5[nH]ccc5c4)cc13)CC2	class 1
COc1cc(NS(=O)(=O)C(C)C)cc(-c2cc(-c3ccc(N4CCNCC4)cc3)cnc2N)c1	class 1
COc1ccc(Cn2cc(C(=O)Nc3cccnc3Nc3ccccc3)nn2)cc1	class 0
Cn1cc(-c2csc(-c3cn(CCOC(N)=O)c4ccccc34)n2)c2cccnc21	class 0

* * *

# Tested on: EKVX NSCLC
# testDetails: NCI-60 one-dose screen, 48 h (100 = growth as untreated, 0 = no growth, -100 = all killed)
# conditionsUsed: 10 µM unless noted
This is part of a sample that, as a whole, favours compounds with a hit. Of some 83,000 tested, about 20% had one in any assay. Calls of active or inactive are those of the source. Rule for the calls: active = growth percent below 10; inactive = the rest.
experimentalEndpoint: growth

Cn1cc2c(=O)nc3c(-c4nc5ccccc5[nH]4)n[nH]n3c2n1	95.6% (inactive)
COc1ccc2c(c1)CCNC21C(=O)Nc2c(Br)cc(Br)cc21 (stereo not given)	78.7% (inactive)
CCCCCCNC(=O)Oc1ccc(/C(=C(/CC)Cc2ccccc2)c2ccc(OCCCN(C)C)cc2)cc1	89.2% (inactive)
CCCCC1COc2cccc3c2N1C=C/C3=C\C(=O)N(C)c1cccc(Cl)c1 (stereo not given)	95.8% (inactive)
COc1ccc(-c2nn3c(-c4cc(F)c(Cl)cc4Cl)nnc3s2)cc1	75.4% (inactive)

* * *

Each entry below carries its reported growth.
# Tested on: SN12C renal
# testDetails: NCI-60 one-dose screen, 48 h (100 = growth as untreated, 0 = no growth, -100 = all killed)
# conditionsUsed: 100 µM
# Description: Growth inhibition of the SN12C human tumor cell line is measured as a screen for anti-cancer activity. Cells are grown in 96 well plates and exposed to the test compound for 48 hours. Compounds are tested at a single concentration, which is 10^-5 M for most compounds. The reported endpoint is percent growth (GI% or GIPRCNT), where numbers from 0 - 100% represent growth inhibition, and numbers from -100% - 0 represent cell death. For example, a value of 40 represents 60% growth inhibition. […]
Compounds without any hit were thinned out: in the full panel of roughly 83,000, 20% have a hit.
experimentalEndpoint: growth (%)

O=C(/C=C/c1cccc(Oc2ccc(Cl)cc2)c1)c1ccccc1	-63.7
CCN(Cc1ccccc1)c1ccc(/C=C2\COc3ccccc3C2=O)cc1	53.2
CC(=O)/C=C/c1ccc(OCc2ccc(C(C)(C)C)cc2)cc1	28.1
COc1ccc(C(=O)/C=C/c2ccc(OCc3cccc(C(F)(F)F)c3)c(OC)c2)cc1OC	17
CC(=O)/C=C/c1ccc(N(C)Cc2ccc(C(C)(C)C)cc2)cc1	-81.1
